- Procedure text: protein stability index of a GFP-peptide fusion (GPS, HEK-293T) (PSI 1-6); higher = more stable;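 note: 24-mer peptide tiles fused after GFP, lentivirally expressed, FACS-sorted into six equal bins by GFP/DsRed ratio, decoded by Illumina sequencing, PSI is the read-weighted mean bin number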
- Test conditions: treatment: MLN4924 1 uM, 8 h; c terminus: a fixed tail appended
Below: a set of entries, each annotated with reported protein stability index.
Result type: protein stability index

[
  {
    "Seq": "DYVDRGYYSVETVTLLVALKVRYR [PPP2CA]",
    "Result type": "protein stability index",
    "Value": 2.47
  },
  {
    "Seq": "LPPDVTTQSVMGFDPLPPSDTIYS [TCF25]",
    "Result type": "protein stability index",
    "Value": 4.37
  },
  {
    "Seq": "REPALDGGFQMHYEKTPFDQLAFI [EID1]",
    "Result type": "protein stability index",
    "Value": 2.43
  },
  {
    "Seq": "QLMEKLREKQLSHSLRAVSTDPPH [BEX1]",
    "Result type": "protein stability index",
    "Value": 3.27
  },
  {
    "Seq": "QLGYLLFGTQVENFSTFIKCIFTQ [PKD2L1]",
    "Result type": "protein stability index",
    "Value": 3.27
  },
  {
    "Seq": "SRTSCRLSGGLGAGSCRLGSAGGL [KRT17]",
    "Result type": "protein stability index",
    "Value": 2.23
  },
  {
    "Seq": "DFFIVGCEVIFCVFIFYYVVEEIL [PKD2L1]",
    "Result type": "protein stability index",
    "Value": 2
  },
  {
    "Seq": "ITHSTVGSKGEKDLGASSLHVNGE [EHMT1]",
    "Result type": "protein stability index",
    "Value": 5.03
  },
  {
    "Seq": "DENGRPYSPSQYALQYAGDGSVLL [NFE2L1]",
    "Result type": "protein stability index",
    "Value": 3.6
  },
  {
    "Seq": "KPGEGRSALFAGNEWRRPIIQFVE [TRIM29]",
    "Result type": "protein stability index",
    "Value": 2.86
  },
  {
    "Seq": "HTRSPYSTFYPPYHSPELTTPPGH [NEUROD6]",
    "Result type": "protein stability index",
    "Value": 3.18
  },
  {
    "Seq": "MEESKAKFENLCKLMKEILDKKVE [HSP90AB1]",
    "Result type": "protein stability index",
    "Value": 3.29
  },
  {
    "Seq": "FVLQAIGIPGWGFSGWISALVVPK [SCAMP3]",
    "Result type": "protein stability index",
    "Value": 2.88
  },
  {
    "Seq": "MFSDNSHCPDCGQQWFPSLELGHW [TOR1AIP2]",
    "Result type": "protein stability index",
    "Value": 2.44
  },
  {
    "Seq": "NQQIHEQEKKILELEKLAEKNIIL [MTUS2]",
    "Result type": "protein stability index",
    "Value": 4.25
  },
  {
    "Seq": "YLFWEFATDNYDIGFGVYFEWTDS [ACBD3]",
    "Result type": "protein stability index",
    "Value": 1.93
  },
  {
    "Seq": "DFSSGGAAAAAAPAPPPPAGGATA [SNAP91]",
    "Result type": "protein stability index",
    "Value": 5.37
  },
  {
    "Seq": "HEKERPEHKSLESLADGGSASPIK [FANCE]",
    "Result type": "protein stability index",
    "Value": 5.31
  },
  {
    "Seq": "ASAPTTPCQKSPNGVRVFPPAMPP [TRIM9]",
    "Result type": "protein stability index",
    "Value": 4.2
  },
  {
    "Seq": "VQRVMAQALGIPATECEFVGSLPV [LPCAT4]",
    "Result type": "protein stability index",
    "Value": 2.76
  },
  {
    "Seq": "EKRPLFLAPDFDRWLDESDAEMEL [HACD3]",
    "Result type": "protein stability index",
    "Value": 4.64
  },
  {
    "Seq": "LEDELDKSVQGTGLAFIAFTEAMT [SLC6A17]",
    "Result type": "protein stability index",
    "Value": 2.82
  },
  {
    "Seq": "PRRKKLKSTSKYIYQTLFLNGENS [GMCL1]",
    "Result type": "protein stability index",
    "Value": 2.79
  },
  {
    "Seq": "FANLIKEFVIIDCRYPYEYEGGHI [CDC25A]",
    "Result type": "protein stability index",
    "Value": 2.76
  },
  {
    "Seq": "SFVLKNFPALLSTGEFLKLPFERL [KLHL13]",
    "Result type": "protein stability index",
    "Value": 2.07
  },
  {
    "Seq": "MNEVKESLRSIEQKYKLFQQQQLT [SPACA9]",
    "Result type": "protein stability index",
    "Value": 3.2
  },
  {
    "Seq": "EEDFDSEQLSVLASCLQELFKAHF [INTS3]",
    "Result type": "protein stability index",
    "Value": 2.49
  },
  {
    "Seq": "HLDIWKSAAWMKERTSPGAIHYCA [SPDEF]",
    "Result type": "protein stability index",
    "Value": 2.4
  },
  {
    "Seq": "ALRAQRASSNVFSNFEQTQIQEFK [MYL5]",
    "Result type": "protein stability index",
    "Value": 3.93
  },
  {
    "Seq": "ESIQQTARSIAEQAHELAYDPNYM [PPTC7]",
    "Result type": "protein stability index",
    "Value": 4.3
  },
  {
    "Seq": "SRRVIAANNRILAERIAKEIQVIP [IMPA1]",
    "Result type": "protein stability index",
    "Value": 2.69
  },
  {
    "Seq": "GSAVARAVCKATTHEVMGPKKKHL [SNAP91]",
    "Result type": "protein stability index",
    "Value": 4.83
  },
  {
    "Seq": "QGQAKTPDSMFLAMLAVVSCASIG [CDK11A]",
    "Result type": "protein stability index",
    "Value": 3.11
  },
  {
    "Seq": "LKKPIKGKQAPRKKAQGKTQQNRK [KMT5A]",
    "Result type": "protein stability index",
    "Value": 4.45
  },
  {
    "Seq": "YWGSPEEQSLLSRWNPWSTEVPYA [TPRG1]",
    "Result type": "protein stability index",
    "Value": 2.23
  },
  {
    "Seq": "LKLMDRHKKDCAREKPFKCQECGK [ZNF75A]",
    "Result type": "protein stability index",
    "Value": 3.95
  },
  {
    "Seq": "FSEALAEGAVKMGMPSSLAHRIAA [PYCR3]",
    "Result type": "protein stability index",
    "Value": 3.06
  },
  {
    "Seq": "QKGSHPMCKEHEDEKINIYCLTCE [TRIM63]",
    "Result type": "protein stability index",
    "Value": 4.67
  },
  {
    "Seq": "MDPQNQHGSGSSLVVIQQPSLDSR [SPRY1]",
    "Result type": "protein stability index",
    "Value": 4.65
  },
  {
    "Seq": "PPATLGEGSADTEDRKLPAPGADV [EHMT1]",
    "Result type": "protein stability index",
    "Value": 5.58
  },
  {
    "Seq": "NPPAQPAPNAWQVIKGVLFRIFII [CLPTM1]",
    "Result type": "protein stability index",
    "Value": 2.09
  },
  {
    "Seq": "SELCIWLGSQIKSLCNLEESITSA [FAM98B]",
    "Result type": "protein stability index",
    "Value": 2.55
  },
  {
    "Seq": "LWPFAWLQVAGLSEEQLQEPITGW [LPCAT4]",
    "Result type": "protein stability index",
    "Value": 2.5
  },
  {
    "Seq": "NYRIMSYFKEAELKDLLLQVGRGL [WEE1]",
    "Result type": "protein stability index",
    "Value": 2.15
  },
  {
    "Seq": "LDDEDDTSIGMPSLMYRSPPGAEE [RETREG3]",
    "Result type": "protein stability index",
    "Value": 5.39
  },
  {
    "Seq": "TPVVLVGNKSDLKQLRQVTKEEGL [RIT1]",
    "Result type": "protein stability index",
    "Value": 4.59
  },
  {
    "Seq": "TGANTKKPEDTAEDLTAKRKRMKM [FAM9B]",
    "Result type": "protein stability index",
    "Value": 5.15
  },
  {
    "Seq": "LHSLDDFYIGKYFGGVLEYFMIQA [RHOBTB3]",
    "Result type": "protein stability index",
    "Value": 2.8
  },
  {
    "Seq": "YGFYDECLRKYGNANVWKYFTDLF [PPP2CA]",
    "Result type": "protein stability index",
    "Value": 2.67
  },
  {
    "Seq": "VLPPRQPSALVPSVTEYRLDGHTI [MYBL2]",
    "Result type": "protein stability index",
    "Value": 3.41
  },
  {
    "Seq": "AVNSGGPLESIDHSVTGFLCEPDP [ALG2]",
    "Result type": "protein stability index",
    "Value": 4.91
  },
  {
    "Seq": "EEPNGQIQGYRVYYTMDPTQHVNN [PTPRD]",
    "Result type": "protein stability index",
    "Value": 3.17
  },
  {
    "Seq": "SSGEDKENDGFVFKMPWKPTHPSS [CDC25B]",
    "Result type": "protein stability index",
    "Value": 4.16
  }
]
